Just for reference, paper PMC7247561 is where these values come from.

# target.entity: MDR1 (P-glycoprotein) (Homo sapiens, UniProt P08183)
# Construct: MDR1 in Calu-3 cultures is expressed and operative on the apical membrane of the cells only after 21 d at ALI; endogenous in cells; host or cells: Calu-3 cells at air-liquid interface, 8 d or 21 d
# Sequence (P08183 whole entry): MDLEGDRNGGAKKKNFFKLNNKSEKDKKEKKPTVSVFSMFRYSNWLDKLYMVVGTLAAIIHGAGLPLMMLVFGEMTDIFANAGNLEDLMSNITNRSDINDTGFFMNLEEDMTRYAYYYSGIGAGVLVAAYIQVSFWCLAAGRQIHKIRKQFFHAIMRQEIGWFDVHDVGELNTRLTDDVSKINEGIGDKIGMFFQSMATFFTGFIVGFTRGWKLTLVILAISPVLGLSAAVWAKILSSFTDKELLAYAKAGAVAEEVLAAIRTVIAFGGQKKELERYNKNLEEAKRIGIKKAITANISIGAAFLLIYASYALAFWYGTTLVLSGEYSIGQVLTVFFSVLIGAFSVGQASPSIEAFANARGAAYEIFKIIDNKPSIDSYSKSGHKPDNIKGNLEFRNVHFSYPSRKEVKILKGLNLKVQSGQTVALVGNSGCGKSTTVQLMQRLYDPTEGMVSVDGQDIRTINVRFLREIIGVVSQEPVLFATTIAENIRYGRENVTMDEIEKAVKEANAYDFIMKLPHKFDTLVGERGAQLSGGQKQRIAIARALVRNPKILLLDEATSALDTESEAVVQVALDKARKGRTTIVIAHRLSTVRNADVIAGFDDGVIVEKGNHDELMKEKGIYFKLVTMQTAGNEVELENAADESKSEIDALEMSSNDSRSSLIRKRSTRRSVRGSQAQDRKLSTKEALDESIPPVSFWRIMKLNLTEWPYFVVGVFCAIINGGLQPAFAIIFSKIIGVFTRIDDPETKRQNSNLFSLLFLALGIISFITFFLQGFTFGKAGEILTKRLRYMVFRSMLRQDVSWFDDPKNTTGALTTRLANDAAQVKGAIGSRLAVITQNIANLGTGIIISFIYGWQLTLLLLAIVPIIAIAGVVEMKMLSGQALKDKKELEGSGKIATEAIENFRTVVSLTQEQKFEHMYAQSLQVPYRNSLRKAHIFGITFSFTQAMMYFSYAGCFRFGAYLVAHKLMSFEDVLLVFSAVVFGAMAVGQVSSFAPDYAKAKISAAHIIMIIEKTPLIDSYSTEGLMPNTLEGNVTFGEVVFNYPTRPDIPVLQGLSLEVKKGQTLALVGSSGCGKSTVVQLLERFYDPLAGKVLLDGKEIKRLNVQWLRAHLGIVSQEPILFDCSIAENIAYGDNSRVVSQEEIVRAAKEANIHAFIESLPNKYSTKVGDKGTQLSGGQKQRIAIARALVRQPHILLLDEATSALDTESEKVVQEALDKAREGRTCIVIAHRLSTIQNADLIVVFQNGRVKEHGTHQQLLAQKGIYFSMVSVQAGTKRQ
# test.protocol: MDR1 activity, bidirectional transport of Rhodamine 123 in Calu-3
# Format: in vitro ADME
# measurement.parameters: human, pH 7.4, probe Rhodamine 123; Calu-3, 21 d at ALI, 1 µM Rhodamine 123, control (no inhibitor); read-out: efflux ratio (ER)
measured.property: efflux ratio at 120 min, 1 µM
Please reply with the number alone, leaving off any unit.

Lab entry: MDR1 (P-glycoprotein) (Homo sapiens, UniProt P08183) assay, molecule "COC(=O)c1ccccc1-c1c2ccc(=N)cc-2oc2cc(N)ccc12" , efflux ratio at 120 min, 1 µM = 7
